Kindly state pIC50 for each of the entries shown.
Test system: C4-2 cells
test.name: Methylene blue survival assay
Format: cell-based
experimental.parameters: Homo sapiens, 72-hr treatment, read-out: IC50 (μm) C4-2
Remember the convention: pIC50 equals -log10 of concentration in molar.

Qu. Recorded pIC50 for `O=C(Nc1nc2ccccc2nc1Nc1ccc(F)cc1)c1ccc2c(c1)OCO2` , please?
Ans. 4.84

Qu. Another: `O=C(Nc1nc2ccccc2nc1Nc1ccc(F)cc1)c1ccccc1`
Ans. 4.90

Qu. Another: `Cc1cccc(Nc2nc3nonc3nc2N/N=C/c2ccc(-c3cccc(C(=O)O)c3)o2)c1C`
Ans. 5.04

Qu. Another: `Cc1cccc(Nc2nc3ccccc3nc2Nc2cccc(C)c2C)c1C`
Ans. 4.75

Qu. Another: `Fc1ccc(Nc2nc3ccccc3nc2Nc2ccc(F)cc2)cc1`
Ans. 5.51
